target.or.test.system: PfCRT^Dd2 (Plasmodium falciparum, UniProt Q9N623, A220S/I356T/K76T/M74I/N326S/N75E/Q271E/R371I)
Sequence (Q9N623 whole entry A220S/I356T/K76T/M74I/N326S/N75E/Q271E/R371I): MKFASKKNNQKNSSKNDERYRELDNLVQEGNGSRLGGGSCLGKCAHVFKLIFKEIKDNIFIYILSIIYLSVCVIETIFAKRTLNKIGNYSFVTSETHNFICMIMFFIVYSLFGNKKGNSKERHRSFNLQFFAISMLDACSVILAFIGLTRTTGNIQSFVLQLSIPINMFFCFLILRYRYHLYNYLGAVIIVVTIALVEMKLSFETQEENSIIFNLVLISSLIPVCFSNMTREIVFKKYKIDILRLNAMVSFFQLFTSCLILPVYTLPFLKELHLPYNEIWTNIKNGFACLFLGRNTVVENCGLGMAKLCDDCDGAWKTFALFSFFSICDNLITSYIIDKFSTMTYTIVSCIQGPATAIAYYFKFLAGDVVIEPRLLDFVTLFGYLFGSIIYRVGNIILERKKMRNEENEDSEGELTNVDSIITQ
test.protocol: [3H]CQ uptake into Xenopus oocytes, cis-inhibition by unlabelled solute
Type: cell-based
experimental.context: read-out: Uptake of [3H]CQ (% PfCRTDd2 control), cis-inhibition
Can you tell me inhibition at 2000 µM for the items I'm about to list?
State just the number; it will be interpreted in %.

Noted for `CC(C)C[C@H](N)C(=O)O` : its inhibition at 2000 µM reads 100

Measured inhibition at 2000 µM of `N[C@@H](Cc1c[nH]c2ccccc12)C(=O)O` : 97

For this molecule ( `N[C@@H](CCC(=O)O)C(=O)O` ), measured inhibition at 2000 µM is 96

For this molecule ( `N[C@@H](CS)C(=O)O` ), measured inhibition at 2000 µM is 97

All figures here come from paper PMC7413254.
